Listing of recorded pIC50 by entry.
test system: HUVEC; experiment: Antiangiogenic activity in HUVEC assessed as inhibition of cell proliferation incubated for 48 hrs by MTT assay; format: functional, cell-based; conditions: Homo sapiens
pIC50: −log10 of the molar value.
observed_property: pIC50

compound=CCN(CC)CCOc1ccc(-n2c3c(c4ccc(O)cc4c2=O)C(=O)c2cc(O)ccc2-3)cc1 tested_target=HUVEC observed_property=pIC50 operator_symbol== recorded_measurement=5.74
compound=COc1ccc2c(c1)C(=O)c1c-2n(-c2ccc(OCCN3CCOCC3)cc2)c(=O)c2cc(OC)ccc12 tested_target=HUVEC observed_property=pIC50 operator_symbol=< recorded_measurement=4.00
compound=COc1ccc2c(c1)C(=O)c1c-2n(-c2ccc(OCCCN3CCCC3)cc2)c(=O)c2cc(OC)ccc12 tested_target=HUVEC observed_property=pIC50 operator_symbol== recorded_measurement=5.29
compound=CCN(CC)CCCOc1ccc(-n2c3c(c4ccc(OC)cc4c2=O)C(=O)c2cc(OC)ccc2-3)cc1 tested_target=HUVEC observed_property=pIC50 operator_symbol== recorded_measurement=4.80
compound="CCN(CC)CCNC(=O)c1c(C)[nH]c(/C=C2\\C(=O)Nc3ccc(F)cc32)c1C [SUNITINIB]" tested_target=HUVEC observed_property=pIC50 operator_symbol== recorded_measurement=6.10
compound=CN1CCN(CCOc2ccc(-n3c4c(c5ccc(O)cc5c3=O)C(=O)c3cc(O)ccc3-4)cc2)CC1 tested_target=HUVEC observed_property=pIC50 operator_symbol== recorded_measurement=5.96

---

tested on: HUVEC; experiment: Antiangiogenic activity in HUVEC assessed as inhibition of cell proliferation incubated for 48 hrs by MTT assay; type: functional, cell-based; conditions: Homo sapiens
pIC50: −log10 of the molar value.
Overview of recorded pIC50 for various molecules
observed_property: pIC50

smiles_string=COc1ccc2c(c1)C(=O)c1c-2n(-c2ccc(OCCN3CCN(C)CC3)cc2)c(=O)c2cc(OC)ccc12 recorded_measurement=4.92
smiles_string=CN(C)CCOc1ccc(-n2c3c(c4ccc(O)cc4c2=O)C(=O)c2cc(O)ccc2-3)cc1 recorded_measurement=5.34
smiles_string=COc1ccc2c(c1)C(=O)c1c-2n(-c2ccc(OCCCN3CCN(C)CC3)cc2)c(=O)c2cc(OC)ccc12 recorded_measurement="< 4.00"
smiles_string=COc1ccc2c(c1)C(=O)c1c-2n(-c2ccc(OCCCN3CCOCC3)cc2)c(=O)c2cc(OC)ccc12 recorded_measurement="< 4.00"
smiles_string=O=C1c2cc(O)ccc2-c2c1c1ccc(O)cc1c(=O)n2-c1ccc(OCCN2CCOCC2)cc1 recorded_measurement="< 4.00"
smiles_string=COc1ccc2c(c1)C(=O)c1c-2n(-c2ccc(OCCN3CCCC3)cc2)c(=O)c2cc(OC)ccc12 recorded_measurement="< 4.00"
smiles_string=COc1ccc2c(c1)C(=O)c1c-2n(-c2ccc(OCCN3CCCCC3)cc2)c(=O)c2cc(OC)ccc12 recorded_measurement="< 4.00"
smiles_string=O=C1c2cc(O)ccc2-c2c1c1ccc(O)cc1c(=O)n2-c1ccc(OCCN2CCCCC2)cc1 recorded_measurement=5.89

---

biological target: Vascular endothelial growth factor receptor 2 (Homo sapiens, UniProt P35968); settings: read-out: IC50
Sequence (P35968 whole entry): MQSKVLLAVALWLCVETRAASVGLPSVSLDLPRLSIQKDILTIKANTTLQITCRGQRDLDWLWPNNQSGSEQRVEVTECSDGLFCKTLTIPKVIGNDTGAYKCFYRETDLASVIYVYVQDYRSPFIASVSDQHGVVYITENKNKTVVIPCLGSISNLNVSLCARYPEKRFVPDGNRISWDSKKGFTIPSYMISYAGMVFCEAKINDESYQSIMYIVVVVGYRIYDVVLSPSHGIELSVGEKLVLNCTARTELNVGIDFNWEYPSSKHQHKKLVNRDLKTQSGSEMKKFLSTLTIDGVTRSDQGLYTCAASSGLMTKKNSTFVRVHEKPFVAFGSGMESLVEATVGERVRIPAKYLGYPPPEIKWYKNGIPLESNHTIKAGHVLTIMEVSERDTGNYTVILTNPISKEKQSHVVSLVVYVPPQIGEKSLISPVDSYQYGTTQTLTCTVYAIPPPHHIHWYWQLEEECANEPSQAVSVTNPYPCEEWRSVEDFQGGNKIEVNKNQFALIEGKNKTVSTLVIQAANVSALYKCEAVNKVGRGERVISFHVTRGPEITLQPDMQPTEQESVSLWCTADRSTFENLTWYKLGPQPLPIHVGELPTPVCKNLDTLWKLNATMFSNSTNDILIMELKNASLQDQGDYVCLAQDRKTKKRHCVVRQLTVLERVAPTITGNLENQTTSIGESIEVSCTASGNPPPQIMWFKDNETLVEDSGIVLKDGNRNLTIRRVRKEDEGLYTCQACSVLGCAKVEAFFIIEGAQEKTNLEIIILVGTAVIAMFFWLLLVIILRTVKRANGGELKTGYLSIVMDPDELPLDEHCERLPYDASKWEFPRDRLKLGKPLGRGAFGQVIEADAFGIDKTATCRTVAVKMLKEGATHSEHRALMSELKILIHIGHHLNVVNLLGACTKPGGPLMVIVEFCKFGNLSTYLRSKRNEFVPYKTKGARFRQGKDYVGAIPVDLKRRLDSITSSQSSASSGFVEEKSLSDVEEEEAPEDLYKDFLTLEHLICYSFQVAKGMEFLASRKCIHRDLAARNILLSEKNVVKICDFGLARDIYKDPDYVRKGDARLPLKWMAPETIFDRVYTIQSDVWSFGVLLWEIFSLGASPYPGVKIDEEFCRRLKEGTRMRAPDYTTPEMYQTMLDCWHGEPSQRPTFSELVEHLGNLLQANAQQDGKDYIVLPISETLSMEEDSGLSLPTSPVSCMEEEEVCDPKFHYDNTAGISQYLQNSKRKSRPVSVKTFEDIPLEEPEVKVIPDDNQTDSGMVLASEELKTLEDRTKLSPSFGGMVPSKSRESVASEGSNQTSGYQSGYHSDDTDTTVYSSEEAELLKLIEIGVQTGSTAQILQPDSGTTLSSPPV
Description: Inhibition of recombinant human His-tagged cytoplasmic VEGFR2 (789 to 1356 residues) expressed in baculovirus expression system incubated for 1 hr by HTRF assay
pIC50: −log10 of the molar value.
// values below are reported pIC50
observed_property: pIC50

smiles_string=O=C1c2cc(O)ccc2-c2c1c1ccc(O)cc1c(=O)n2-c1ccc(OCCN2CCCCC2)cc1 recorded_measurement=6.60
smiles_string=CCN(CC)CCOc1ccc(-n2c3c(c4ccc(OC)cc4c2=O)C(=O)c2cc(OC)ccc2-3)cc1 recorded_measurement=5.99
smiles_string=CN(C)CCOc1ccc(-n2c3c(c4ccc(O)cc4c2=O)C(=O)c2cc(O)ccc2-3)cc1 recorded_measurement=6.48
smiles_string=CCN(CC)CCOc1ccc(-n2c3c(c4ccc(O)cc4c2=O)C(=O)c2cc(O)ccc2-3)cc1 recorded_measurement=6.92
smiles_string=O=C1c2cc(O)ccc2-c2c1c1ccc(O)cc1c(=O)n2-c1ccc(OCCN2CCCC2)cc1 recorded_measurement=7.00
smiles_string=COc1ccc2c(c1)C(=O)c1c-2n(-c2ccc(OCCN(C)C)cc2)c(=O)c2cc(OC)ccc12 recorded_measurement=5.41
